# systemUnderTest: Cathepsin K (Homo sapiens, UniProt P43235)
# Sequence (P43235 whole entry): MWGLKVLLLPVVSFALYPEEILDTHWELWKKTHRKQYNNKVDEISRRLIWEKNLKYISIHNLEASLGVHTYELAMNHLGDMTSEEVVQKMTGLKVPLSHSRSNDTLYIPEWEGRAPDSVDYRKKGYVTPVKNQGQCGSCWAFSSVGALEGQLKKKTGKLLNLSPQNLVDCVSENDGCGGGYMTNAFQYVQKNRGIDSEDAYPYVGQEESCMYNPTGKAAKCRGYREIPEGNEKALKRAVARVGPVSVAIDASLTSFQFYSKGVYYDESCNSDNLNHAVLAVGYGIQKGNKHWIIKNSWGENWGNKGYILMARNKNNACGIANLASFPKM
measuredProperty: pIC50
Note: pIC50 values are expressed as the negative base-10 logarithm of concentration in M.

(Q) # pIC50 lookup, item O=C(O)C1=C(C(=O)N(Cc2ccccc2)Cc2ccccc2)CN2C[C@H](NC(=O)[C@H](Cc3ccccc3)NC(=O)c3cc4ccccc4[nH]3)C(=O)N12
(A) 4.19

###

# systemUnderTest: UniProtKB P0DTD1
measuredProperty: pIC50
Note: pIC50 values are expressed as the negative base-10 logarithm of concentration in M.

Sample answers from the record:
(Q) # pIC50 lookup, item C=CCOC(=O)C1=C(C(=O)O)N2C(=O)[C@@H](NC(=O)[C@H](Cc3ccccc3)NC(=O)c3cc4ccccc4[nH]3)CN2C1
(A) 3.72

(Q) # pIC50 lookup, item O=C(O)C1=C(C(=O)NCc2ccccc2)CN2C[C@H](NC(=O)[C@H](Cc3ccccc3)NC(=O)c3cc4ccccc4[nH]3)C(=O)N12
(A) 3.75

Further cases:
(Q) # pIC50 lookup, item O=C(O)C1=C(C(=O)N(Cc2ccccc2)Cc2ccccc2)CN2C[C@H](NC(=O)[C@H](C[C@@H]3CCNC3=O)NC(=O)[C@H](Cc3ccccc3)NC(=O)c3cc4ccccc4[nH]3)C(=O)N12
(A) 3.79

###

# systemUnderTest: Replicase polyprotein 1ab (Severe acute respiratory syndrome coronavirus 2, UniProt P0DTD1)
# protocolDetails: Inhibition of SARS-Cov-2 Main protease by FRET assay
measuredProperty: IC50 (µM)
Answer with a number only, understood to be in µM.

(Q) # IC50 lookup, item O=C(O)C1=C(C(=O)N2CCCC2)CN2C[C@H](NC(=O)[C@H](Cc3ccccc3)NC(=O)c3cc4ccccc4[nH]3)C(=O)N12
(A) 181

(Q) # IC50 lookup, item CCN(CC)C(=O)C1=C(C(=O)O)N2C(=O)[C@@H](NC(=O)[C@H](Cc3ccccc3)NC(=O)c3cc4ccccc4[nH]3)CN2C1
(A) 279

(Q) # IC50 lookup, item O=C(O)C1=C(Cl)CS[C@@H]2[C@H](NC(=O)[C@H](Cc3ccccc3)NC(=O)c3cc4ccccc4[nH]3)C(=O)N12
(A) 90

Further cases:
(Q) # IC50 lookup, item CC1(C)S[C@@H]2[C@H](NC(=O)[C@H](Cc3ccccc3)NC(=O)c3cc4ccccc4[nH]3)C(=O)N2[C@H]1C(=O)O
(A) 134

(Q) # IC50 lookup, item O=C(O)C1=C(C(=O)NCc2ccncc2)CN2C[C@H](NC(=O)[C@H](Cc3ccccc3)NC(=O)c3cc4ccccc4[nH]3)C(=O)N12
(A) 201

(Q) # IC50 lookup, item O=C(O)C1=C(C(=O)N(Cc2ccccc2)Cc2ccccc2)CN2C[C@H](NC(=O)[C@H](Cc3ccccc3)NC(=O)c3cc4ccccc4[nH]3)C(=O)N12
(A) 45
